Origin of measurements: paper PMC10812921

Target: POU2 (OCT2 POU domain);BOB1 (OBF1, OCA-B) (human;human, UniProt P09086;Q16633 175-386;1-256, |)
Sequence 1: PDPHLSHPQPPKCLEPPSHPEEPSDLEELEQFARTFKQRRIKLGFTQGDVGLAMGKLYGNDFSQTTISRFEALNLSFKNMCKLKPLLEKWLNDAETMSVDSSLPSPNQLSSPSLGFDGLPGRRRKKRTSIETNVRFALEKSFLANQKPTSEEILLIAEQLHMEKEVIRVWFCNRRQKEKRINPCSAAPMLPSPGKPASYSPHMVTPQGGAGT
Sequence 2: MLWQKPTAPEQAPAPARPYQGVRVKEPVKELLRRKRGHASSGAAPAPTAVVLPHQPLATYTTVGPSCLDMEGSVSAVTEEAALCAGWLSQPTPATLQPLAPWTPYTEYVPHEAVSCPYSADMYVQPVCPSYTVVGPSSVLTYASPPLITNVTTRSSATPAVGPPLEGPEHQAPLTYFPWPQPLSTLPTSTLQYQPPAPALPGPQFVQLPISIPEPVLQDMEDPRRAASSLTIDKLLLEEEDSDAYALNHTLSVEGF
Assay: EMSA-SELEX-seq; with BOB1 (ternary complex band); 20 mM Tris-HCl pH 7.6, 140 mM NaCl, 10% glycerol, 0.5 mM EDTA, 0.05% Triton X-100, 0.1 mg/mL BSA, 0.1 mg/mL poly(dI-dC), 5 mM DTT, room temperature, 20 min; high values mean tight binding
Conditions: protein: recombinant;recombinant; copies: 1;1; dsDNA, one strand shown
Catalogue of sequences with associated binding signal

// known answers, use as guide
{"columns": ["sequence-content", "endpoint", "value-measured"],
 "data": [
  ["AGTCCAAC", "binding signal", "0.0248 % of ANNNNAAN 8-mers"],
  ["AACTCAAC", "binding signal", "0.0182 % of ANNNNAAN 8-mers"],
  ["ACCGTAAT", "binding signal", "0.0495 % of ANNNNAAN 8-mers"],
  ["ATGCCAAG", "binding signal", "0.0248 % of ANNNNAAN 8-mers"],
  ["ATAAGAAC", "binding signal", "0.0438 % of ANNNNAAN 8-mers"]
]}

# input Item under review: "ACCGCAAC" . Reported binding signal?
# output 0.0157 % of ANNNNAAN 8-mers

# input Item under review: "ATAGCAAG" . Reported binding signal?
# output 0.0454 % of ANNNNAAN 8-mers

# input Item under review: "ACACGAAG" . Reported binding signal?
# output 0.0157 % of ANNNNAAN 8-mers

* * *

Catalogue of sequences with associated binding signal
Target: POU2 (OCT2 POU domain);BOB1 (OBF1, OCA-B) (human;human, UniProt P09086;Q16633 175-386;1-256, |)
Sequence 1: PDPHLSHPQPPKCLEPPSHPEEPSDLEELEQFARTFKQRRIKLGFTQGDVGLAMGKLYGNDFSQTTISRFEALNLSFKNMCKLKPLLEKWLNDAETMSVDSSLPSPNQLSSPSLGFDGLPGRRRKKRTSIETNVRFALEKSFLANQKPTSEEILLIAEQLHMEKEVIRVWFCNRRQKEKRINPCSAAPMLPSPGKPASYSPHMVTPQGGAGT
Sequence 2: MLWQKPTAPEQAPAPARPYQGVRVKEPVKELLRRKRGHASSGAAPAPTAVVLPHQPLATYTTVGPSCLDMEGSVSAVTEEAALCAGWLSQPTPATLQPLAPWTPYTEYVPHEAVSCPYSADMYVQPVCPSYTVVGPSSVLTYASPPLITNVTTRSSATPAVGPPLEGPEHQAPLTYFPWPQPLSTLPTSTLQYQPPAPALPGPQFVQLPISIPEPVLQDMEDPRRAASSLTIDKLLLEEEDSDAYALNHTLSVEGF
Experiment: EMSA-SELEX-seq; with BOB1 (ternary complex band); 20 mM Tris-HCl pH 7.6, 140 mM NaCl, 10% glycerol, 0.5 mM EDTA, 0.05% Triton X-100, 0.1 mg/mL BSA, 0.1 mg/mL poly(dI-dC), 5 mM DTT, room temperature, 20 min; high values mean tight binding
Conditions: protein: recombinant;recombinant; copies: 1;1; dsDNA, one strand shown

// known answers, use as guide
{"columns": ["sequence-content", "binding signal"],
 "data": [
  ["AATCAAAG", "0.0916 % of ANNNNAAN 8-mers"],
  ["ACCTGAAA", "0.019 % of ANNNNAAN 8-mers"],
  ["ATCTTAAT", "0.135 % of ANNNNAAN 8-mers"],
  ["AGAACAAC", "0.0239 % of ANNNNAAN 8-mers"],
  ["AGGAAAAC", "0.0636 % of ANNNNAAN 8-mers"]
]}

# input Item under review: "ATTTGAAC" . Reported binding signal?
# output 0.0553 % of ANNNNAAN 8-mers

# input Item under review: "AGGTAAAA" . Reported binding signal?
# output 0.085 % of ANNNNAAN 8-mers

# input Item under review: "AGTTGAAC" . Reported binding signal?
# output 0.0338 % of ANNNNAAN 8-mers

# input Item under review: "ACGTAAAA" . Reported binding signal?
# output 0.0537 % of ANNNNAAN 8-mers

# input Item under review: "AATGTAAG" . Reported binding signal?
# output 0.0958 % of ANNNNAAN 8-mers
